Assign TGI to each entry below.
Tested on: A498 renal
Test: NCI tumour cell line growth inhibition, 48 h

Molecule	TGI
O=C(Oc1ccccn1)c1cc2cc(CCl)ccc2oc1=O	> 100 µM

I need TGI for every entry listed below, if you could help.
1. COc1ccc(C(OCC2OC(n3cc(C)c(=O)[nH]c3=O)CC2n2cc(Cn3cc(Cl)c(=O)[nH]c3=O)nn2)(c2ccccc2)c2ccccc2)cc1 (configuration not stated)
2. C[C@H](CCC(=O)O)[C@H]1CC[C@H]2[C@@H]3CC[C@@H]4C[C@H](O)CC[C@]4(C)[C@H]3C[C@H](O)[C@]12C

-- reply
["> 100 µM", "> 100 µM"]

For each entry beneath this line, provide reported TGI.
1. CC(OC(C)(C)C)[C@H](NC(=O)OCC(Cl)(Cl)Cl)C(=O)O (some centres not stated)
2. Cc1ccc(NC(=O)CC2CC2)cc1-c1ccc(C(=O)NCC2CC2)cc1

-- reply
["> 100 µM", "> 25 µM"]

Report TGI for each item below.
1. COC(=O)C(Cc1nc2ccc(Cl)cc2[nH]c1=O)/C(=N\N)C(=O)Nc1cc(C)c(Cl)cc1S(=O)(=O)O (configuration not stated)
2. CN(C)CCC(=O)c1ccccc1

-- reply
1. > 100 µM
2. > 95.5 µM
